assay: Binding affinity to methyl alpha-D-mannopyranoside (unknown origin) in MPOS buffer at pH 7.0 assessed as secondary dissociation constant (Kd2) by ITC experiment
readout.type: Kd (mM)

Example molecules with recorded Kd:
CN[C@@H]1[C@H](O[C@@H]2OC[C@@H](O)[C@H](O)[C@H]2O)[C@@H](O)[C@H](O[C@H]2c3cc(C)c(C(=O)N[C@H](C)C(N)=O)c(O)c3-c3c(cc4c(c3O)C(=O)c3cc(OC)cc(O)c3C4=O)[C@@H]2O)O[C@@H]1C: 5.5
CN[C@@H]1[C@H](O[C@@H]2OC[C@@H](O)[C@H](O)[C@H]2O)[C@@H](O)[C@H](O[C@H]2c3cc(C)c(C(=O)N[C@H](C)C(=O)NO)c(O)c3-c3c(cc4c(c3O)C(=O)c3cc(OC)cc(O)c3C4=O)[C@@H]2O)O[C@@H]1C: 4.3

P. CN[C@@H]1[C@H](O[C@@H]2OC[C@@H](O)[C@H](O)[C@H]2O)[C@@H](O)[C@H](O[C@H]2c3cc(C)c(C(=O)N[C@H](C)C(=O)N(C)O)c(O)c3-c3c(cc4c(c3O)C(=O)c3cc(OC)cc(O)c3C4=O)[C@@H]2O)O[C@@H]1C
Q. CN[C@@H]1[C@H](O[C@@H]2OC[C@@H](O)[C@H](O)[C@H]2O)[C@@H](O)[C@H](O[C@H]2c3cc(C)c(C(=O)N[C@H](C)C(=O)N(C)OC)c(O)c3-c3c(cc4c(c3O)C(=O)c3cc(OC)cc(O)c3C4=O)[C@@H]2O)O[C@@H]1C
Please indicate which item has the smaller measured Kd: P versus Q # respond with the chosen item's label
P
